- ASSAY_REMARKS: Thermal stability (Protein Thermal Shift assay)
- Format: physicochemical
- APPLIED_CONDITIONS: VHH domains, first derivative analysis
Tm strictly less than 70 °C = fulfilled. Otherwise not fulfilled.

Decide: Tm of E11: ALPP targeting VHH domain, SEQ ID NO: 32 (protein) VHH: QVQLVESGGGSVQAGGSLRLSCAASGPSLSNFAMGWFRQPPGKEREFVAGISWGGGRTSYTDSVKGRFTISRDNAKNTVYLQMNNLKPEDTGVYYCAGRYGRGRNVEYEYDYWGQGTQVTVSS strictly below 70 °C?
not fulfilled

Decide: Tm of A12: ALPP targeting VHH domain, SEQ ID NO: 19 (protein) VHH: QVHLVECGGGSVQAGGFLRLSCAASGPSLSNYAMGRFRQAPGKEREFVAGISWGGGRTSYTDSVKGRFTISRDNAKNTVYLQMNNLEPEDTGVYYCAGRYGRGRNVEYEYDYWGQGTKVTVSS strictly below 70 °C?
not fulfilled

Decide: Tm of D08: ALPP targeting VHH domain, SEQ ID NO: 27 (protein) VHH: QVHLVESGGGSVQAGGSLRLSCAASGPSLSNYAMGWFRQAPGKEREFVAGISWGGGRTSYTDSVKGRFTISRDNAKNTVYLQMNNLKPEDTGVYYCAGRYGRGRNVEYEYDYWGQGTKVTVSS strictly below 70 °C?
fulfilled

Decide: Tm of G03: ALPP targeting VHH domain, SEQ ID NO: 38 (protein) VHH: QVQLVESGGGTAQAGGSLRLACAASGRSVTMGWLGWVPRAERDDLEFITWFNWGTYYANSVNGRFTISTDNADNTVYPQMNRLKPENPAVYYCASFTGYRPLINRLNDVSDCGHGALVAVSS strictly below 70 °C?
not fulfilled

Decide: Tm of C05: ALPP targeting VHH domain, SEQ ID NO: 23 (protein) VHH: QVQLVESGGGLVQAGGSLRLSCAASRRSFSEYAMGWFRQAPGKEREFVAAIGWSGVIEYADSVKGRFTISRDNAKDTVYLQMNSLKPEDTAVYYCAAGLGIRVVSQTPAYWGQGTQVTVSS strictly below 70 °C?
not fulfilled
